- measurement_target: NIH-3T3 cells overexpressing human IR (Homo sapiens, UniProt P06213)
- Sequence (P06213 28-1382): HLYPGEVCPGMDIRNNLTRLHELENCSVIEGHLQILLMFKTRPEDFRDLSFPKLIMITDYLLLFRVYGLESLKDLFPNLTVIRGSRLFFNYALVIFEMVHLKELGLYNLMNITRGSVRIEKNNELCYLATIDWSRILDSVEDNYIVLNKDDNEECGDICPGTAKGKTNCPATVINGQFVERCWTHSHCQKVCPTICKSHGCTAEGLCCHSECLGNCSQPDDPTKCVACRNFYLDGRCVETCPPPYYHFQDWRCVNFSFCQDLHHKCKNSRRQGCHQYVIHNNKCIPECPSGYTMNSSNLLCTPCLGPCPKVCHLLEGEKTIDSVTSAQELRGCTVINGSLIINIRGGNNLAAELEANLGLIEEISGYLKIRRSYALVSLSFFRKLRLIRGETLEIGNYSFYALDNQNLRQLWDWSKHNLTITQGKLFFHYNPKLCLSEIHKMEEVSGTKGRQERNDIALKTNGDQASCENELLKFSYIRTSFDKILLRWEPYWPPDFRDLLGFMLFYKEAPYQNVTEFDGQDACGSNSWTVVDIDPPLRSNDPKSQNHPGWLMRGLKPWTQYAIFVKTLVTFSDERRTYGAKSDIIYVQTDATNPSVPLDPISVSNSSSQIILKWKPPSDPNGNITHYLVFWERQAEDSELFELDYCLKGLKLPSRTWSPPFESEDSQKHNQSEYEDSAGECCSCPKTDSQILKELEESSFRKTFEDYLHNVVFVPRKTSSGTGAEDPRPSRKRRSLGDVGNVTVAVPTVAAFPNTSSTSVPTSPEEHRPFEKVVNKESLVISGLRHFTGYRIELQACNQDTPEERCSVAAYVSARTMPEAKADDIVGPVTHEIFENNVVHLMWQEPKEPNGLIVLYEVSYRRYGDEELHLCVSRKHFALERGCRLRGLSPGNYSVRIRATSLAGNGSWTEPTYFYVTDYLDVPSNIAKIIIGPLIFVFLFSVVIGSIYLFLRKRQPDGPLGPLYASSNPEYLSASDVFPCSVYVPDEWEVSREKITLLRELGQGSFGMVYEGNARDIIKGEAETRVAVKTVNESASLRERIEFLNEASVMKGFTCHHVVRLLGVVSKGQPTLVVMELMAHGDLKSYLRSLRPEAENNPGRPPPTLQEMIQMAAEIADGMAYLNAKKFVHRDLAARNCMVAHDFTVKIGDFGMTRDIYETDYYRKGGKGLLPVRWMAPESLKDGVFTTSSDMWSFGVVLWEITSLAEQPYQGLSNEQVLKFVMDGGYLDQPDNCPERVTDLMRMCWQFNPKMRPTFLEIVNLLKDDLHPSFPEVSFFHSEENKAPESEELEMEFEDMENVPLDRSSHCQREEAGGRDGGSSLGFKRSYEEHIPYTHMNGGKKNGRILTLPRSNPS
- protocol_description: IR cellular autophosphorylation (DELFIA)
- test_context: 2 h compound, insulin 3 ug/ml for 15 minutes, IC50 category
Give measured IC50 for each item. Keep answers brief.

Lab book: IC50 of CNC(=O)c1c(F)cccc1Nc1nc(Nc2cc3c(cc2OC)N(C(=O)CN(C)C)CC3)nc2[nH]ccc12 [Example 198] noted as > 500 nM

Lab book: IC50 of CNC(=O)c1c(F)cccc1Nc1nc(Nc2cc3c(cc2OC)CCCN3C(=O)[C@@H]2CCCN2C)nc2[nH]ccc12 [Example 202] noted as 100 to 500 nM

Lab book: IC50 of COc1cc(N2CCN(C(C)C)CC2)ccc1Nc1nc(Nc2ccc(F)cc2C(N)=O)c2cc[nH]c2n1 [Example 60] noted as 100 to 500 nM

Lab book: IC50 of Cc1ccc(NC(=O)CN(C)C)cc1Nc1nc(Nc2cc3ccccc3cc2C(N)=O)c2cc[nH]c2n1 [Example 30] noted as > 500 nM
